Tested on: THRa homodimer (NR concentration 90 nM)
PROCEDURE_SUMMARY: PBM binding z-score (relative to random genomic background probes); higher = stronger binding; sequences stand for … in GC…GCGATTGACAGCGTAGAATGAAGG
Kindly supply the reported PBM binding z-score values for the records listed here.
A bare number is all that is needed in reply.

Name the recorded PBM binding z-score for CAAACTAGGTCACGCAAGGTCAAAGTCGAATGAC .
4.21

Quick one: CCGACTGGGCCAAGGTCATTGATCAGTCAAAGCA
2.09

Quick one: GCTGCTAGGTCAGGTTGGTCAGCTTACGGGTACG
0.808

Quick one: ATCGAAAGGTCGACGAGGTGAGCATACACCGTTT
1.18

Quick one: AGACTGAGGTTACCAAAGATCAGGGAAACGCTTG
0.552

Quick one: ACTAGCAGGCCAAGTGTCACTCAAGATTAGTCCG
-0.248

Quick one: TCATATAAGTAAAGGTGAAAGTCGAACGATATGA
-0.569

Quick one: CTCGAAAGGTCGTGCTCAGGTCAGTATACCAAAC
2.7

Quick one: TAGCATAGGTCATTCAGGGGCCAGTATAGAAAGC
-0.317

Quick one: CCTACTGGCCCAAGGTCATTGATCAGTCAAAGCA
2.81

Quick one: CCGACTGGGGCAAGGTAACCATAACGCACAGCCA
0.219

Quick one: CGCCCAAGGTCATAGGAGGTCAGTGAAGACAGAT
3.1

Quick one: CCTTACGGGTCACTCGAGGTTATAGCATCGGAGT
0.632

Quick one: CCTACTGGGCCATTTAGAGGTCATTGATCATATG
1.7

Quick one: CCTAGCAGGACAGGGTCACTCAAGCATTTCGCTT
1.44

Quick one: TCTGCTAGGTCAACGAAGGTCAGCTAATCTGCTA
1.69

Quick one: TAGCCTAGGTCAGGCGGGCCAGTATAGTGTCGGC
-0.0587

Quick one: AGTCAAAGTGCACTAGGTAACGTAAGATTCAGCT
-0.285

Quick one: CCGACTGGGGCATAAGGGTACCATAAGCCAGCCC
-0.457

Quick one: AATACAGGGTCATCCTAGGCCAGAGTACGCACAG
1.97

Quick one: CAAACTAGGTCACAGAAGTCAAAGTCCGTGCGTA
1.26

Quick one: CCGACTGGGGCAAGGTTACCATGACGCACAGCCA
0.0571

Quick one: TCTCGGAGGACAAGAAAGGTCAGAGCTCGACATC
0.472

Quick one: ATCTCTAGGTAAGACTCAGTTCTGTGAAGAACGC
0.633

Quick one: CCTTACGCGTCACTGACAGGTTATAGCATTTGGA
0.512

Quick one: CGTCAGAGTTCAAGGTAACGTAACAGAAAGCAGC
1.04
